- target: T1, IL-11 (UniProt P20809 22-199, limits assumed)
- T1 construct: also called IL-11 protein; IL-11 antigen
- T1 sequence (looked up): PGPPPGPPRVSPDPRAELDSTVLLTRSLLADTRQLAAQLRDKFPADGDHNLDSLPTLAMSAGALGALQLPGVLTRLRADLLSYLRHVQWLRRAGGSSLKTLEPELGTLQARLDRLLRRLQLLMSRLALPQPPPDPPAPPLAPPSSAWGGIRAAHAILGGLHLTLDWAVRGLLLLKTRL
- test_method_notes: BLI (Fortebio), antibody on AHC sensor, IL-11 3.91-125 nM
pKd: −log10 of the molar value.
value_kind: pKd

[[record]]
binder = "MIL-11 mab-01 (antibody, IgG1, V domains shown, also called 1E12 full-length antibody) VH: QVQLVQSGAEVKKPGASVKVSCKASDYTFTNYWLGWVRQAPGQGLEWMGHIYPGGGYTNYNEKFKGRVTMTRDTSTSTVYMELSSLRSEDTAVYYCARVSSGNDALDLWGQGTLVTVSS VL: EIVLTQSPATLSLSPGERATLSCRASESVDEYGISFMNWFQQKPGQAPRLLIYSGSNEGSGIPARFSGSGSGTDFTLTISSLEPEDFAVYFCNQSKEVPWTFGGGTKLEIK"
value_reported = 8.93

[[record]]
binder = "MIL-11 mab-03 (antibody, IgG1, V domains shown, also called 1F12 full-length antibody) VH: QVQLVQSGAEVKKPGASVKVSCKASDYTFTNYWLGWVRQAPGQGLEWMGHIYPGGGYTNYNEKFKGRVTMTRDTSTSTVYMELSSLRSEDTAVYYCARVSSGNDALDFWGQGTLVTVSS VL: EIVLTQSPATLSLSPGERATLSCRASESVDEYGISFMNWFQQKPGQAPRLLIYSASNQASGIPARFSGSGSGTDFTLTISSLEPEDFAVYFCQQSKELPWTFGGGTKLEIK"
value_reported = 9.58

[[record]]
binder = "VH1+VL3 full-length humanized antibody (antibody, human IgG1, kappa, V domains shown, IgG form, IgG1 Fc; also called VH1+VL3 mAb; CPD-2) VH: QVQLVQSGAEVKKPGASVKVSCKASDYTFTNYWLGWVRQAPGQGLEWMGHIYPGGGYTNYNEKFKGRVTMTRDTSTSTVYMELSSLRSEDTAVYYCARVRSGNDALDFWGQGTLVTVSS VL: EIVLTQSPATLSLSPGERATLSCRASESVDEYGISFMNWFQQKPGQAPRLLIYSASNQGSGIPARFSGSGSGTDFTLTISSLEPEDFAVYFCQQSKEVPWTFGGGTKLEIKR"
value_reported = 8.55

[[record]]
binder = "MIL-11 mab-02 (antibody, IgG1, V domains shown, also called 2E2 full-length antibody) VH: QVQLVQSGAEVKKPGASVKVSCKASDYTFTNYWLGWVRQAPGQGLEWMGHIYPGGGYTNYNEKFKGRVTMTRDTSTSTVYMELSSLRSEDTAVYYCARVSSGNDALDFWGQGTLVTVSS VL: EIVLTQSPATLSLSPGERATLSCRASESVDEYGISFMNWFQQKPGQAPRLLIYSASNQGSGIPARFSGSGSGTDFTLTISSLEPEDFAVYFCQQSKELPWTFGGGTKLEIK"
value_reported = 9.62

